Target: RARα (Homo sapiens, UniProt P10276)
Sequence (P10276 183-417 limits assumed): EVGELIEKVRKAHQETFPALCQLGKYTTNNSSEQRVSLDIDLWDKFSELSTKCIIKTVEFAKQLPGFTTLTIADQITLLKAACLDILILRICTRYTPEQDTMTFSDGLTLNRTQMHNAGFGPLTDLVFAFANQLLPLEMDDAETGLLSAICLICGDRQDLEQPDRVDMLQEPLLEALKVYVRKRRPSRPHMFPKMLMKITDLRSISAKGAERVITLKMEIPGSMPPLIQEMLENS
Assay: chimeric receptor transactivation assay
Assay type: cell-based
Details: value in parentheses
reportedProperty: RAR (EFFICACY) α

These recorded examples may help you get a feel for the data.
1) CC1(C)CCC(=O)c2ccc(C#Cc3ccc(C(=O)O)c(F)c3)cc21 [Compound 10] | (146)
2) Cc1cc(C#Cc2ccc(C(=O)O)cc2)ccc1C1(OC(C)C)CC1 [Compound 85] | (60)
3) CN(C1CC1)C1CCC(C)(C)c2cc(C#Cc3ccc(C(=O)O)cc3)ccc21 (stereo not drawn) [Compound 3] | (28)
4) COC1(c2ccc(C#Cc3ccc(C(=O)O)cc3)cc2)CC1 [Compound 69] | (10)
5) CC1(C)CC2(CC2)Oc2ccc(C#Cc3ccc(C(=O)O)c(F)c3)cc21 [Compound 44] | (138)

INPUT: Look up RAR (EFFICACY) α: Cc1cc(C#Cc2ccc(C(=O)O)cc2)ccc1C1(OCC(C)(C)C)CC1 [Compound 89]
OUTPUT: (20)

INPUT: Given the entry CC1(C)CC2(CC2)Oc2ccc(C#Cc3ccc(C(=O)O)cc3)cc21 [Compound 40] , report its measured RAR (EFFICACY) α.
OUTPUT: (207)

INPUT: Data request, read-out RAR (EFFICACY) α, for CCc1cc(C#Cc2ccc(C(=O)O)cc2)ccc1C1(OCc2ccccc2)CC1 [Compound 93]
OUTPUT: (114)

INPUT: Which measured RAR (EFFICACY) α value corresponds to CCCNC1(c2ccc(C#Cc3ccc(C(=O)O)cc3)cc2)CC1 [Compound 108] ?
OUTPUT: (15)
